# Test system: HCT-116
# protocol_details: Induction of apoptosis in human HCT-116 cells assessed as late apoptotic cells at IC50 incubated for 72 hrs by Annexin V-FITC/PI staining based flow cytometric analysis (reference value: 1.6 %)
# Type: functional
measurement_type: Activity (%)
Give bare numbers, in %.

molecule	measure_unit	Activity
CC12C(=O)C(C)(C(c3ccccc3)=C1c1ccccc1)C1C(=O)N(CCCCN3CCN(c4ncccn4)CC3)C(=O)C12 (stereo not given)	%	4.1
CC12C(=O)C(C)(C(c3ccccc3)=C1c1ccccc1)C1C(=O)N(CCCCN3CCN(c4ccccc4F)CC3)C(=O)C12 (stereo not given)	%	1.9
COc1ccccc1N1CCN(CCCCN2C(=O)C3C(C2=O)C2(C)C(=O)C3(C)C(c3ccccc3)=C2c2ccccc2)CC1 (stereo not given)	%	2.3
CC12C(=O)C(C)(C(c3ccccc3)=C1c1ccccc1)C1C(=O)N(CCCCN3CCN(c4ccccc4Cl)CC3)C(=O)C12 (stereo not given)	%	5

Next item in the queue.
Ask: Output measured Activity for this item: CC12C(=O)C(C)(C(c3ccccc3)=C1c1ccccc1)C1C(=O)N(CCCCN3CCN(c4ccccn4)CC3)C(=O)C12 (stereo not given)
Reply: 2.1

* * *

# protocol_details: Selectivity index, ratio of IC50 for cytotoxicity against human HMEC-1 cells to IC50 for cytotoxicity against human HepG2 cells
# Assay type: toxicity, cell-based
# conditions_used: HMEC-1 cells and HepG2 cells, read-out: Ratio IC50
Would you kindly list selectivity ratio for each of these molecules?
Give bare numbers.

Would you please look over these solved cases?
molecule	assay_value
CC12C(=O)C(C)(C(c3ccccc3)=C1c1ccccc1)C1C(=O)N(CCCCN3CCN(c4ccccc4Cl)CC3)C(=O)C12 (stereo not given)	1.6
CC12C(=O)C(C)(C(c3ccccc3)=C1c1ccccc1)C1C(=O)N(CCCCN3CCN(c4cccc(Cl)c4)CC3)C(=O)C12 (stereo not given)	1.55
CC12C(=O)C(C)(C(c3ccccc3)=C1c1ccccc1)C1C(=O)N(CCCCN3CCN(c4ccccn4)CC3)C(=O)C12 (stereo not given)	2.51
CC12C(=O)C(C)(C(c3ccccc3)=C1c1ccccc1)C1C(=O)N(CCCCN3CCN(c4ncccn4)CC3)C(=O)C12 (stereo not given)	1.83

Next item in the queue.
Ask: Output measured selectivity ratio for this item: CC12C(=O)C(C)(C(c3ccccc3)=C1c1ccccc1)C1C(=O)N(CCCCN3CCN(c4ccccc4F)CC3)C(=O)C12 (stereo not given)
Reply: 0.66

// data source = ChEMBL document CHEMBL5329202
